Source: patent US20260176295A1

# Procedure Text: Pharmacokinetic (PK) study of phosphate conjugates of BMS-777607 in male swiss albino mice
# Type: in vivo
# Condition Context: mouse, in vivo, Plasma, 2 mg/kg single intravenous bolus
Experimental Readout: C0 (ng/mL)
Quick reminder: number only, in ng/mL, skip the unit.

Query :: Identify the reported C0 for the following entry. Nc1nccc(Oc2ccc(NC(=O)c3c(OCP(=O)([O-])[O-])ccn(-c4ccc(F)cc4)c3=O)cc2F)c1Cl.[Na+].[Na+] [Compound 10]
Result :: 16000
